assay: qHTS Assay for Spectroscopic Profiling in A350 Spectral Region; details: Compound autofluorescence, 340/450 nm, Alexa 350 dye-equivalents
Out of some 59,000 compounds screened, about 6,500 (11%) were called active. Inconclusive results (about 15%) are left out. No stated cut-off is given here; in the data, active means max dye-equivalent concentration above about 10 nM; inconclusive means mostly about 1.1 nM to 9.6 nM; inactive means weaker than that. Shown is part of a subset that was picked to be rich in actives.
The categories you may choose from are active, inactive

Look up the recorded call for `N#Cc1ccccc1-n1c(N)c(C(=O)N2CCCC2)sc1=S` in this test.
inactive

Hello, I am checking results. What call was entered for `O=C(NCc1ccco1)c1cnn2c(C(F)(F)F)cc(-c3ccco3)nc12` ?
active

Tell me the recorded outcome of this test for `C=CCn1c(CC(=O)Nc2cccc(OC)c2)nnc1SCC(=O)NC1CCCCC1` .
inactive

How was `CC(C)NS(=O)(=O)c1ccc(OCC(=O)Nc2ccc3c(c2)OCCO3)cc1` classified in this test?
inactive

How did this test come out for `O=C(NCc1ccco1)c1cc(-c2cccnc2)nc2ccc(Cl)cc12` ?
inactive

Test call, this molecule: `Cc1ccc(S(=O)(=O)N2CCC(N3CCCCCC3)CC2)cc1`
inactive

What was the test verdict on `COC(=O)c1ccccc1NC(=O)Cn1nc(C(F)(F)F)c2c1CCC2` ?
inactive

Record request — test call for `CCCCCn1c(SCCC(C)C)nc2c1c(=O)[nH]c(=O)n2C`
inactive

Hello, I am checking results. What call was entered for `O=S(=O)(Nc1ccccc1N1CCOCC1)c1ccc(Cl)s1` ?
inactive

GET /call?item= `COC(=O)c1cnn2c(C(F)(F)F)cc(-c3ccco3)nc12` returns the recorded outcome of this test.
active

What did the test return for `Cc1c(NC(=O)c2coc(=O)c(Br)c2)c(=O)n(-c2ccccc2)n1C` ?
active

---

Assay: qHTS Assay for Spectroscopic Profiling in A350 Spectral Region
Conditions: Compound autofluorescence, 340/450 nm, Alexa 350 dye-equivalents
Description: NIH Molecular Libraries Screening Centers Network [MLSCN] NIH Chemical Genomics Center [NCGC] Occasionally, the artifactual effect may originate from the compounds own spectral or other biophysical properties which generally tend to track its assay concentration. […] A standard curve of Alexa 350 (A 350) present on each plate as six-point concentration series, was used to compute a normalized fluorescence response, termed dye-equivalent concentration, for each compound at each concentration. […]
The whole screen tested about 59,000 compounds, of which about 6,500 (11%) were called active. About 15% were inconclusive and are not listed. Cut-off read from the data, not from the text of the source: active = max dye-equivalent concentration above about 10 nM; inconclusive = mostly about 1.1 nM to 9.6 nM; inactive = weaker than that. The full list was thinned out, with actives kept by preference.
In this exercise, the only acceptable responses are 1 = active, 0 = inactive

Recorded test outcome, item `N#Cc1cccc(-c2ccc3ncnc(NCc4cccs4)c3c2)c1`
0

Recorded test call requested for `C=CCn1c(SCC(=O)Nc2nc3ccccc3s2)nnc1-c1ccccc1O`
0

What classification did Cc1nc2ccc(NC(=O)N3CCC(c4ccccc4)C3)cc2nc1C (centres undefined) end up with in this test?
1

What is the recorded call for this compound in the test? `O=C(NCCCCO)C(F)(F)C(F)(F)C(F)(F)C(=O)NCCCCO`
0

Test call for this compound, please: Cc1cc(C)c2[nH]c(=O)c(C(c3nnnn3Cc3ccc4c(c3)OCO4)N3CCCC3)cc2c1 (centres undefined)
0

What classification did `CCCS(=O)(=O)N1CCC(C(=O)NCCc2ccc(OC)c(OC)c2)CC1` end up with in this test?
0

Could you please tell me the result logged for `O=C(Nc1cccc(NC(=O)N2CCN(c3ccccc3)CC2)c1)N1CCN(c2ccccc2)CC1` in this assay?
0

Hello, I am checking results. What call was entered for COc1ccc(/C(O)=C2/C(=O)C(=O)N(CCCN(C)C)C2c2ccccc2)cc1OC (centres undefined) ?
0

For this compound, state the assay outcome: `COc1ccc(Cl)cc1S(=O)(=O)Nc1cccc(C(=O)O)c1`
0

Lab log entry: COc1ccc(OC)c(C(c2nnnn2C(C)(C)C)N2CCc3ccccc3C2)c1 (centres undefined) — outcome as called in the assay?
0

Hi team, can someone confirm the assay call for `COc1ccc(S(=O)(=O)N(CCCN2CCCC2=O)Cc2cc3c(C)ccc(C)c3[nH]c2=O)cc1` ?
1

How was `CCN(CC)c1ccc(C(=O)OCC(=O)c2ccco2)cc1` classified in this test?
0

In this assay, the call recorded for `Cc1cc(NC(=O)c2cnn3cccnc23)n(-c2ccccc2)n1` was what?
0

Per the assay record, what outcome was assigned to `COc1ccc(-c2nnc(SCC(=O)c3cccs3)o2)c(OC)c1` ?
0

Just curious, what result did `O=C(c1ccco1)N1CCC[C@@]2(CCN(c3ccccc3)C2)C1` get here?
0

Field: outcome | Entry: O=C(O)C1CC(=O)N(Cc2cccnc2)C1 (centres undefined)
0

Please state the recorded outcome for this compound: `COc1ccccc1Nc1nc(N)nc(CN(C)C2CCCCC2)n1`
0

Entry `Cc1c(C)c2c(c(C)c1O)CC[C@@](C)(CN1CCN(c3cc(N4CCCC4)nc(N4CCCC4)n3)CC1)O2` : call = ?
1

Dear all, I need the recorded test outcome for `Cn1c(CCN2CCCCCC2)nc2cc(NC(=O)Nc3ccccc3)ccc21` , thank you.
0

Record request — test call for `CN(C)CC/C=C1\c2ccccc2CSc2ccccc21`
0

Would you mind telling me which call this test gave COc1ccccc1NC(=O)C1=C(C)Nc2nnnn2C1c1cccc(Br)c1 (centres undefined) ?
0

Please let me know the test result on file for C=CCn1c2ccccc2c2nnc(SC(CC)C(=O)Nc3nc(C)c(C(=O)OCC)s3)nc21 (centres undefined) .
1

Recorded call for `O=S(=O)(N1CCOCC1)N1CCN(c2ccccc2F)CC1` ?
0

Please indicate how the test categorized CCN(CC)CCN1C(=O)C(=O)/C(=C(/O)c2ccc(OC)c(OC)c2)C1c1ccccn1 (centres undefined) .
1

Each compound tested received a call. Report the one for CCOc1ccc2[nH]c(=O)c(C(c3nnnn3CCOC)N3CCOCC3)cc2c1 (centres undefined) .
1

Recorded test call requested for COc1ccc(N2CCN(C(c3cc4ccc(C)cc4[nH]c3=O)c3nnnn3C3CCCC3)CC2)cc1 (centres undefined)
0

Test call for this compound, please: CC1=C(C(=O)Nc2ccccc2)C(c2cccs2)C(C#N)=C(SCC#N)N1 (centres undefined)
0

Please state the recorded outcome for this compound: `COc1ccc(OC)c(C(=O)CSc2nnc(-c3cccs3)o2)c1`
1

// param item: CCOC(=O)CCCNC(=O)CN1C(=O)NC(CCc2ccccc2)C1=O (centres undefined) ; yields the recorded call
0

How was `CN(C)CCSS(=O)(=O)O` classified in this test?
0

Give the logged outcome of this assay for the following compound: O=C(CS(=O)(=O)Cc1ccccc1)NCC1CCCO1 (centres undefined)
0

For this compound, state the assay outcome: `c1coc(CNc2ncnc3ccccc23)c1`
0

Status in this test for `O=S(=O)(O)CCN1CCOCC1` ?
0

Answer briefly: the call reported for `Cc1ccc(C)c(NS(=O)(=O)c2cc(Br)cnc2N)c1` in this assay.
0

// outcome(item) with item = `CN1CCc2c(sc3c2c(NCc2ccco2)nc2nnnn23)C1`
1

GET /call?item= CC(=O)NCCc1ccc(S(=O)(=O)N(C)C2CCS(=O)(=O)C2)cc1 (centres undefined) returns the recorded outcome of this test.
0

I would be grateful if you could indicate the recorded call for `CCOc1cc2[nH]c(=S)n(CCCN3CCCC3=O)c(=O)c2cc1OCC` .
0

# lookup: test call for `CCOc1ccc(CCNC(=O)C2CCN(c3ccc(N4CCOCC4)nn3)CC2)cc1OCC`
1

Per the records of this test, what outcome belongs to COc1ccccc1N(C(=O)Cn1nnc2ccccc21)C(C(=O)NCc1ccco1)c1ccc(C)o1 (centres undefined) ?
0

Test call, this compound: `C=C(C)Cn1c(SCC(=O)NCc2ccco2)nc2sc3c(c2c1=O)CCC3`
0

For `COc1ccc(-n2c(C)cc(C(=O)CSc3nnc(-c4cccs4)o3)c2C)cc1` , what call appears in the results of this test?
0

Entry `COc1ccc(COC(=O)c2n[nH]c3ccccc23)cc1F` : call = ?
0

Name the outcome recorded for COCCn1nnnc1C(c1cc2ccc(OC)cc2[nH]c1=O)N1CCc2ccccc2C1 (centres undefined) in the assay.
1

Assay result, entry CCCOc1ccc(/C(O)=C2/C(=O)C(=O)N(CCN(C)C)C2c2ccc(OC)c(OC)c2)cc1 (centres undefined) — outcome?
0

---

Assay: qHTS Assay for Spectroscopic Profiling in A350 Spectral Region
Details: Compound autofluorescence, 340/450 nm, Alexa 350 dye-equivalents
Excerpt: NIH Molecular Libraries Screening Centers Network [MLSCN] NIH Chemical Genomics Center [NCGC] Occasionally, the artifactual effect may originate from the compounds own spectral or other biophysical properties which generally tend to track its assay concentration. […] A standard curve of Alexa 350 (A 350) present on each plate as six-point concentration series, was used to compute a normalized fluorescence response, termed dye-equivalent concentration, for each compound at each concentration. […]
The whole screen tested about 59,000 compounds, of which about 6,500 (11%) were called active. Inconclusive results (about 15%) are left out. Rule as the data show it: active = max dye-equivalent concentration above about 10 nM; inconclusive = mostly about 1.1 nM to 9.6 nM; inactive = weaker than that. Many of the other results were omitted from the sample, so actives are more common in it than they were.
Valid outcomes are listed here; reply with one: YES for active, NO for inactive

What call does the record list for Cc1cc2c(cc1C)NC(c1ccccn1)C1=C(CC(C)(C)CC1=O)N2 (stereo unspecified) ?
NO

Would you mind telling me which call this test gave `Fc1ccc2nc(N3CCCCC3)sc2c1` ?
NO

Which outcome did this test record for the compound CCOc1cccc(/C(O)=C2/C(=O)C(=O)N(CCOC)C2c2ccncc2)c1 (stereo unspecified) ?
NO

Any idea what this test logged for `Cc1cc(N2CCCCC2)nc2ccc(Cc3ccc4nc(N5CCCCC5)cc(C)c4c3)cc12` ?
YES

Given CSc1cccc(NC(=O)C2CCCN2S(=O)(=O)c2ccc3c(c2)CCC(=O)N3)c1 (stereo unspecified) , state the outcome it received in this test.
NO

Assay outcome for COc1cc(C2C(C#N)=C(C)NC3=C2C(=O)CC(C)(C)C3)ccc1O (stereo unspecified) : what was it?
YES
